Parameter: melting point. Scope: all listed entries.

Study these solved cases before continuing.
// lookup melting point for `NC(=O)Nc1ccc2c(=O)n(CCCCN3CC=C(c4ccccc4)CC3)c(=O)[nH]c2c1`
260 °C

What do you get for `COc1ccc(C(=O)N2CCc3cc(O)ccc3C2)cc1OC` ?
58 to 77 °C

What do you get for `COC(=O)c1ccccc1S(=O)(=O)N(c1ccn(-c2nc(C)cc(C)n2)n1)S(=O)(=O)c1ccccc1C(=O)OC` ?
177 °C

What do you get for OC(CCc1cccnc1)CSc1ccc(-c2ccccc2)cc1 (stereo not given) ?
128 to 130 °C

What do you get for `c1ccc2sc(-c3ccnc(Nc4ccc5c(c4)OCCO5)c3)cc2c1` ?
154 °C

Further cases:
// lookup melting point for `O=C1c2c(Cl)cccc2-n2cnc(C#Cc3cccc(Cl)c3)c2[C@@H]2CCCN12`
207 to 209 °C

What do you get for `O=C(OCCN1CCOC1=O)c1ccccc1Nc1ccnc2c(C(F)(F)F)cccc12` ?
158 to 160 °C

----------
Parameter: melting point. Scope: all listed entries.

Study these solved cases before continuing.
// lookup melting point for `COc1c(Cl)ccc(-c2nc(C(=O)OC(C)C)cc(Cl)c2Cl)c1F`
124 to 128 °C

What do you get for `Nc1cc(O)ccc1CCCl` ?
96 to 100 °C

Further cases:
// lookup melting point for `NS(=O)(=O)c1ccc(-c2cc3cccccc-3c2-c2ccccc2)cc1`
169 to 170 °C

What do you get for `CCOC(=O)c1c(-c2ccc(N)cc2)c(C#N)c(=O)n2ccccc12` ?
260 to 262 °C

What do you get for `CCOC(=O)C(=C(c1ccc(F)cc1)c1ccc(F)cc1)c1nnnn1C` ?
144 to 145 °C

What do you get for COC(=O)[C@H](CCSC)NC(=O)c1ccc(NC(Cn2ccnc2)c2ccc(F)cc2)cc1-c1ccc(F)cc1 (stereo partly specified) ?
94 to 98 °C

----------
experimentalEndpoint: melting point

// lookup melting point for `Oc1ccc(Br)cc1-c1ccc2nonc2c1`
179 to 181 °C

Further cases:
// lookup melting point for `Cc1ccc(C)c(NC(=O)CCl)c1C`
145 to 146 °C

What do you get for CC1C(O)C(C(C)(C)O)C(=O)N1c1ccc(C#N)c(Cl)c1 (stereo not given) ?
131 to 132 °C

What do you get for CC(C)(C)c1ccc(C2OCC(CO)([N+](=O)[O-])CO2)cc1 (stereo not given) ?
90 to 92 °C

What do you get for `O=C1Nc2c(cc(F)c(F)c2F)C1=O` ?
193 to 194 °C

What do you get for CC(=O)OC1(C(C)=O)CCC2C3CCC4=CC(=O)CCC4(C)C3CCC21C (stereo not given) ?
243 to 245 °C

What do you get for `CC(=O)c1cc(C(C)=O)cc(N(C(C)=O)C(=O)Nc2ccccc2)c1` ?
223 to 224 °C

What do you get for `Cc1ccc(/C=C/c2ccc3nc(C(=O)N[C@@H](Cc4ccc(OCc5ccccc5)cc4)C(=O)O)cn3c2)cc1` ?
266 to 267 °C

What do you get for CC(O)CC#Cc1ccc(C(CC2CCCC2)C(=O)O)cc1 (stereo not given) ?
73 to 76 °C

What do you get for `Cc1nnc(-c2ccc3occ(-c4ccc(C(=O)O)cc4Cl)c3c2)o1` ?
267 to 268 °C

----------
Parameter: melting point. Scope: all listed entries.

Study these solved cases before continuing.
// lookup melting point for CC(O)CN1CCN(c2cccccc2=O)CC1 (stereo not given)
92 to 93 °C

What do you get for CC(C(=O)c1ccc2[nH]ccc2c1)N1CCC(O)(c2ccccc2)CC1 (stereo not given) ?
60 to 70 °C

What do you get for O=C(c1ccc(F)cc1)N1CCN(CC(O)Cn2c3ccccc3c3ccccc32)CC1 (stereo not given) ?
70 to 80 °C

What do you get for Cc1cc(C(=O)N(C)CCO)ncc1C(c1cc(F)ccc1F)S(=O)(=O)c1ccc(F)cc1 (stereo not given) ?
123 to 125 °C

What do you get for O=S(=O)(Cc1cc(F)cc(F)c1)NC1CN(C(c2ccc(Cl)cc2)c2cccnc2)C1 (racemic) ?
110 °C

What do you get for `Nc1sc2c(c1C(=O)c1ccco1)CCC2` ?
149 to 153 °C

Further cases:
// lookup melting point for `CN1C(=O)Cn2c(nn(-c3ccccc3)c2=O)-c2cc(Cl)ccc21`
174 to 175 °C

What do you get for `Cc1onc(-c2cccc(Cl)c2)c1C(=O)O` ?
171 to 173 °C

What do you get for `N#Cc1ccc(O[C@H]2CC[C@H](NC(=O)Nc3ccc(OC(F)(F)F)cc3)CC2)cc1` ?
186 to 189 °C

What do you get for `O=C1c2c(-c3ccccc3)c3ccccc3c(=O)n2CCN1Cc1cc(C(F)(F)F)cc(C(F)(F)F)c1` ?
194 to 196 °C

What do you get for `COc1cc(COc2nn(-c3ccccc3)cc2CCc2cscn2)ccc1OCc1nc(-c2ccco2)oc1C` ?
127 to 128 °C

What do you get for `CCCn1c(=O)c(N=O)c(N)n(Cc2ccccc2)c1=O` ?
208 to 212 °C

What do you get for CN[C@@H]1CN(c2cc3c(cc2F)c(=O)c(C(=O)O)cn3C(C)(C)C)[C@H]1C (relative stereo) ?
194 to 195 °C

----------
Parameter: melting point. Scope: all listed entries.

Study these solved cases before continuing.
// lookup melting point for O=C(O)CC(Br)c1ccc([N+](=O)[O-])cc1 (stereo unspecified)
166 to 167 °C

What do you get for `Cc1sc(-c2ccccc2)nc1COc1ccc(CCl)cn1` ?
78 to 79 °C

What do you get for `O=C1c2c(Cl)cccc2-n2cncc2[C@@H]2CCN12` ?
207 to 208 °C

What do you get for O=C(O)CCC1CNC(=O)CC1c1ccc(F)cc1 (stereo unspecified) ?
139 to 141 °C

What do you get for `CS(=O)(=O)c1ncc2c(n1)N(c1ccccc1)C(=O)N(c1ccccc1Cl)C2` ?
186 °C

Further cases:
// lookup melting point for `CNC(=O)c1ccc(C=CC(=O)Nc2cccc(-c3ccc(C)c(CCl)c3C)c2)cc1`
236 to 244 °C

----------
Parameter: melting point. Scope: all listed entries.

Study these solved cases before continuing.
// lookup melting point for `Cc1cc(C)c(Nc2nc(C)ncc2S(=O)(=O)c2ccc(F)cc2)c(C)c1`
191 to 193 °C

What do you get for CCOC1CN(Cc2ccc(OC)cc2)Cc2cc(OC)c(OCc3ccccc3)cc21 (stereo not given) ?
84 to 85 °C

What do you get for `Cc1onc(-c2ccccc2)c1-c1ccc(S(=O)(=O)NC(=O)CC(C)(C)S)cc1` ?
138 to 140 °C

Further cases:
// lookup melting point for CCNC1CCN(c2cccc(-c3cnc4[nH]cc(C(=O)C(C)(C)C)c4n3)c2)C1 (stereo not given)
200 to 202 °C

What do you get for `Nc1c(O)c(Br)cc(Br)c1C(=O)O` ?
162 to 164 °C

----------
Parameter: melting point. Scope: all listed entries.

Study these solved cases before continuing.
// lookup melting point for `CCOc1cc(OC)c(/C=C/C(=O)c2ccc(C(=O)O)cc2)cc1-c1cccs1`
210 to 212 °C

What do you get for `COc1ccc(CNc2ncnc(Cl)c2N)cc1` ?
187 to 188 °C

Further cases:
// lookup melting point for `COC(=O)c1ccc(Oc2ccc(O)cc2)cc1`
130 to 134 °C

What do you get for `Cc1cc(C(=O)O)sn1` ?
203 to 204 °C

What do you get for `CC(=O)Oc1ccc(-c2c3ccccc3cc3sc(C)c(C)c23)cc1` ?
147 to 150 °C

What do you get for `CCc1nc2ccc(Cl)nc2n1Cc1ccc2oc(-c3ccccc3-c3nnn[nH]3)c(Br)c2c1` ?
162 to 165 °C

----------
Parameter: melting point. Scope: all listed entries.

// lookup melting point for `CSc1nc2ccnn2c2ncccc12`
192 °C

What do you get for `CC(=O)Oc1cc2c(c3ccccc13)Nc1ccc(C)cc1S2` ?
193 to 195 °C

What do you get for CCCc1nc(C(C)(C)O)c(C(=O)OC2OC(=O)c3ccccc32)n1Cc1ccc(-c2ccccc2-c2nnn[nH]2)cc1 (stereo not given) ?
168 to 170 °C

What do you get for CCOC(=O)C(Cc1ccc(OCc2ccccc2)cc1)Oc1ccc(OC(F)(F)F)cc1 (stereo not given) ?
34 to 36 °C

What do you get for `CCn1c(=O)c(-c2c(Cl)cccc2Cl)cc2cnc(Nc3ccc(OC)c(OC)c3)nc21` ?
221 to 223 °C

Further cases:
// lookup melting point for `COC(=O)c1c(C(F)F)nc(C(F)(F)F)c(C(=O)SC)c1NC1CC1`
108 to 109 °C

What do you get for `OCCNC(c1ccccc1)(c1ccccc1)c1ccccc1` ?
94 to 97 °C

What do you get for `O=C1N[C@H](CO)C[C@H]1C1CCCCC1` ?
96 to 97 °C

What do you get for `CC(C)(C)OC(=O)N1CCC(CO)(c2ccccc2)CC1` ?
64 °C

What do you get for `COc1cccc(-c2cc(=O)c3c(OC)cc(OC)c(C4=CCN(C)CC4)c3o2)c1OC` ?
195 to 196 °C
